Attribution: paper PMC8779140

Target: SARS-CoV-2 PL^pro (Severe acute respiratory syndrome coronavirus 2, UniProt P0DTD1)
Construct: The synthetic gene of SARS-CoV-2 PL^pro was cloned into the pET16b vector; made in house; host or cells: E. coli BL21(DE3)
Experiment: biochemical
VALUE_TYPE: pIC50
Keep in mind that pIC50 stands for -log10 of concentration in molar terms.

Here is how some compounds turned out for pIC50.
compound="O=C(Nc1ccc([N+](=O)[O-])cc1Cl)c1cc(Cl)ccc1O [Niclosamide]" value_type=pIC50 value_observed=4.78
compound="CCN(CC)CCCC(C)Nc1c2ccc(Cl)cc2nc2ccc(OC)cc12 (stereo not drawn) [Mepacrine]" value_type=pIC50 value_observed=5.36

Query string: Entry COc1cccc2c1C(=O)c1c(O)c3c(c(O)c1C2=O)C[C@@](O)(C(=O)CO)C[C@@H]3O[C@H]1C[C@H](N)[C@H](O)[C@H](C)O1 [Doxorubicin] has what pIC50?
Result string: 5.34
